tested on: EW-18 (Ewing's Sarcoma); experiment: combination Emax (second highest fraction inhibited in the dose matrix, 72 h); higher = more inhibition; extreme values may be limits of the assay
A collection of compounds and their measured combination Emax
valueType: combination Emax

[[record]]
compound = "CC1(C)CCC(CN2CCN(c3ccc(C(=O)NS(=O)(=O)c4ccc(NCC5CCOCC5)c([N+](=O)[O-])c4)c(Oc4cnc5[nH]ccc5c4)c3)CC2)=C(c2ccc(Cl)cc2)C1 [Venetoclax] + C[C@@H]1COCCN1C2=NC(=NC(=C2)C3(CC3)[S@](=N)(=O)C)C4=C5C=CNC5=NC=C4 [AZD6738] (first compound max 1 µM, 7x7, partner max 10 µM)"
experimentalsystem = "EW-18 (Ewing's Sarcoma)"
valuetype = "combination Emax"
valuemeasured = 0.67

[[record]]
compound = "CCN(CCO)CCCOc1ccc2c(Nc3cc(CC(=O)Nc4cccc(F)c4)[nH]n3)ncnc2c1 [AZD2811] + C=CCn1c(=O)c2cnc(Nc3ccc(N4CCN(C)CC4)cc3)nc2n1-c1cccc(C(C)(C)O)n1 [AZD1775] (first compound max 1 µM, partner max 1 µM)"
experimentalsystem = "EW-18 (Ewing's Sarcoma)"
valuetype = "combination Emax"
valuemeasured = 0.635

[[record]]
compound = "NC1(C(=O)N[C@@H](CCO)c2ccc(Cl)cc2)CCN(c2ncnc3[nH]ccc23)CC1 [Capivasertib] + CCN(CCO)CCCOc1ccc2c(Nc3cc(CC(=O)Nc4cccc(F)c4)[nH]n3)ncnc2c1 [AZD2811] (first compound max 10 µM, 7x7, partner max 1 µM)"
experimentalsystem = "EW-18 (Ewing's Sarcoma)"
valuetype = "combination Emax"
valuemeasured = 0.811


Origin of values: the supplement of paper PMC11061612
